Target sequence: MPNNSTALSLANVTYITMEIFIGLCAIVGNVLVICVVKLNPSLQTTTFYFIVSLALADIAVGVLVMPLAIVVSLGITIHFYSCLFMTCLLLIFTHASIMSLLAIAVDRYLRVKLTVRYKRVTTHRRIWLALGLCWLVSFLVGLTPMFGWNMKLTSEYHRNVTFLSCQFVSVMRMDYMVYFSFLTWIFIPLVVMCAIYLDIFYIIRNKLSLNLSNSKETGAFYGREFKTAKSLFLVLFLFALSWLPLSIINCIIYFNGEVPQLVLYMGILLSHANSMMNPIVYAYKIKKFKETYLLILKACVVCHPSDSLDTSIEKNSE
pKi: −log10 of the molar value.
Answer 0 (no) if pKi is under 8, and 1 (yes) if it is 8 or more.

> print(dat)
                                   compound  category
1  CNc1nc(C#Cc2ccc(Cl)s2)nc2c1ncn2[C@H]1[C@H](O)[C@H](O)[C@]2(C(=O)OC)C[C@H]12   1 (yes)

Reported pKi at or above 8? `CCOC(=O)[C@@]12C[C@@H]1[C@@H](n1cnc3c(NC)nc(C#Cc4ccc(Cl)s4)cc31)[C@H](O)[C@@H]2O` 0 (no)

Reported pKi at or above 8? `CCCCOC(=O)[C@@]12C[C@@H]1[C@@H](n1cnc3c(NC)nc(C#Cc4ccc(Cl)s4)nc31)[C@H](O)[C@@H]2O` 0 (no)

Reported pKi at or above 8? `CNc1nc(C#Cc2ccc(Cl)s2)nc2c1ncn2[C@H]1[C@H](O)[C@H](O)[C@]2(C(=O)OCCC(C)C)C[C@H]12` 0 (no)

Reported pKi at or above 8? `CNc1nc(C#Cc2ccc(Cl)s2)nc2c1ncn2[C@H]1[C@H](O)[C@H](O)[C@]2(C(=O)OCCC3CCCCC3)C[C@H]12` 0 (no)

Entry source: ChEMBL document CHEMBL4007505
